# Test system: SF-268 CNS
# measurement-notes: NCI-60 one-dose screen, 48 h
# condition-notes: 10 µM unless noted
This is part of a sample that, as a whole, favours compounds with a hit. Of some 83,000 tested, about 20% had one in any assay. Activity calls are given as the source filed them. How the source made its calls: active means growth percent below 10; inactive means the rest.
Labels: active, inactive

molecule	study-system	class-assignment
Clc1ccc(CO/N=C(\Cn2ccnc2)c2ccc(Cl)cc2Cl)c(Cl)c1	SF-268 CNS	inactive
NC(=Nc1ccccc1)N[N+](=O)[O-]	SF-268 CNS	inactive
CCCCCCCCCCCCCCCCCC1OC[C@H](COC(=O)O[C@@H](C(=O)O[C@H]2C[C@@]3(O)[C@@H](OC(=O)c4ccccc4)[C@@H]4[C@]5(OC(C)=O)CO[C@@H]5C[C@H](O)[C@@]4(C)C(=O)[C@H](OC(C)=O)C(=C2C)C3(C)C)[C@@H](NC(=O)c2ccccc2)c2ccccc2)O1 (some centres not stated)	SF-268 CNS	inactive
O=C(CC1(O)C(=O)Nc2ccc(Cl)cc21)c1ccc(C(=O)NCC2CCC3(CC2)OOC2(CCCCC2)OO3)cc1 (configuration not stated)	SF-268 CNS	inactive
C/C1=C/C(=O)O[C@@H]2C[C@@H](CC[C@H](C)/C=C\C=C\CC1)O[C@@](O)([C@@H]1CSC(=O)N1CO)C2	SF-268 CNS	active
COc1cc(NC(C)CCCNC2CN3CCC2CC3)c2ncccc2c1 (configuration not stated)	SF-268 CNS	inactive
O=[As](O)(O)c1ccccc1[As](=O)(O)O	SF-268 CNS	inactive
COC(=O)C12CC(NC(=O)c3csc([C@@H](C[C@H](C(C)C)N(C)C(=O)[C@@H](NC(=O)[C@H]4CCCCN4C)C4CC4)OC(C)=O)n3)(C1)C2	SF-268 CNS	inactive
O=[N+]([O-])c1cc(I)cc([N+](=O)[O-])c1	SF-268 CNS	inactive
COC(=O)[C@@H](C)C[C@H](Cc1ccccc1)NC(=O)c1csc([C@@H](C[C@H](C(C)C)N(C)C(=O)[C@@H](NC(=O)[C@H]2CCCCN2C)C(C(F)(F)F)C(F)(F)F)OC(C)=O)n1	SF-268 CNS	inactive
OCCNC(Cc1ccccc1)c1ccc2c(c1)OCO2 (configuration not stated)	SF-268 CNS	inactive
CC12CCC3C(CCC4Cc5[nH]c6ccccc6c5CC43C)C1CCC2O (configuration not stated)	SF-268 CNS	inactive
COC(C(=O)[C@@H](O)[C@@H](C)O)[C@@H]1Cc2cc3cc(O[C@H]4C[C@@H](O[C@H]5C[C@@H](O)[C@H](O)C(C)O5)[C@H](O)C(C)O4)c(C)c(O)c3c(O)c2C(=O)[C@H]1O[C@H]1C[C@@H](O[C@H]2C[C@@H](O[C@H]3C[C@@H](O)[C@@H](O)C(C)O3)[C@@H](O)C(C)O2)[C@H](O)C(C)O1 (some centres not stated)	SF-268 CNS	inactive
Oc1ccc2c3c1OC1[C@@H](O)CC[C@@]4(O)[C@@H](C2)N(CC2CCC2)CC[C@]314 (some centres not stated)	SF-268 CNS	inactive
CC(C)(C)C(=O)OCOP(=O)(NCc1ccccc1)C1CCCN(O)C1=O (configuration not stated)	SF-268 CNS	inactive
CCCC[C@H](NC(=O)[C@H]1CCCCN1C)C(=O)N(C)[C@H](C[C@@H](OC(C)=O)c1nc(C(=O)N[C@@H](Cc2ccccc2)C[C@H](C)C(=O)OCC)cs1)C(C)C	SF-268 CNS	inactive
CCN(CCO)C(Cc1ccccc1)c1ccccc1 (configuration not stated)	SF-268 CNS	inactive
c1ccc(COc2ccc3[nH]cc(CCN(Cc4ccccc4)Cc4ccccc4)c3c2)cc1	SF-268 CNS	inactive
C=C1C(=O)O[C@H]2[C@H]1CC/C(COC(=O)C(=O)c1cn(Cc3ccccc3)c3ccccc13)=C\CC[C@@]1(C)O[C@@H]21	SF-268 CNS	active
CCOC(=O)[C@@H](C)C[C@H](Cc1ccccc1)NC(=O)c1csc([C@@H](C[C@H](C(C)C)N(C)C(=O)[C@@H](NC(=O)[C@H]2CCCCN2C)C(C)(C)CC)OC(C)=O)n1	SF-268 CNS	inactive
N#CC1(c2ccccc2)CCN(Cc2ccccc2)CC1	SF-268 CNS	inactive
CC1(C)N=C(N)N=C(N)N1c1ccc(OCCCNC(=O)Nc2ccc(S(=O)(=O)F)cc2)c(Cl)c1	SF-268 CNS	inactive
CCCCC1(CCC)C(=O)NC(=S)NC1=O	SF-268 CNS	inactive
COC(=O)[C@H](Cc1ccccc1)NC(=O)c1csc([C@@H](C[C@H](C(C)C)N(C)C(=O)[C@@H](NC(=O)[C@H]2CCCCN2C)C2CC2)OC(C)=O)n1	SF-268 CNS	inactive
COc1ccc(N(CC(=O)NCCC[Te]c2ccccc2)C(=O)CCSC2=C(C)C(=O)c3ccccc3C2=O)cc1	SF-268 CNS	active
CC(C)=CC1C(C(=O)OCc2cccc(Oc3ccccc3)c2)C1(C)C (configuration not stated)	SF-268 CNS	inactive
C=CCCCN=C=S	SF-268 CNS	inactive

====

Reported growth values for the following compounds.
# Tested on: SK-MEL-5 melanoma
# measurement-notes: NCI-60 one-dose screen, 48 h (100 = growth as untreated, 0 = no growth, -100 = all killed)
# condition-notes: 10 µM unless noted
# Method: Growth inhibition of the SK-MEL-5 human tumor cell line is measured as a screen for anti-cancer activity. Cells are grown in 96 well plates and exposed to the test compound for 48 hours. Compounds are tested at a single concentration, which is 10^-5 M for most compounds. The reported endpoint is percent growth (GI% or GIPRCNT), where numbers from 0 - 100% represent growth inhibition, and numbers from -100% - 0 represent cell death. For example, a value of 40 represents 60% growth inhibition. […]
This is part of a sample that, as a whole, favours compounds with a hit. Of some 83,000 tested, about 20% had one in any assay. Activity calls are given as the source filed them. How the source made its calls: active means growth percent below 10; inactive means the rest.

compound	growth
COC(=O)[C@@H](C)C[C@H](Cc1ccccc1)NC(=O)c1csc([C@@H](C[C@H](C(C)C)N(C)C(=O)[C@@H](NC(=O)[C@H]2CCCCN2C)C(C(F)(F)F)C(F)(F)F)OC(C)=O)n1	-18.5% (active)
CC(=O)OC1C(OC/C2=C/C3[C@@H](C(C)C)CC=C(C)[C@@H]3CC(OC(=O)/C=C/c3cn(C)cn3)[C@]3(C)C=C[C@@]2(O)O3)OCC(O)C1O (some centres undefined)	7.53% (active)
C/C(=C\c1ccn(-c2ccccc2N)n1)[C@@H]1C[C@@H]2O[C@]2(C)CCC[C@H](C)[C@H](O)[C@@H](C)C(=O)C(C)(C)[C@@H](O)CC(=O)O1	12.2% (inactive)
NC(=O)c1c(Br)n(C2OC(CO)C(O)C2O)c2ncnc(N)c12 (centres undefined)	50.7% (inactive)
O=c1[nH]c2ccc([N+](=O)[O-])cc2c(=O)o1	95.3% (inactive)
COc1ccc(Nc2ccc([N+](=O)[O-])cc2[N+](=O)[O-])cc1CN(CCCl)CCCl	57.2% (inactive)
CN(C)CC(C(=O)Cc1ccccc1)c1ccccc1 (centres undefined)	97.2% (inactive)
C[C@]12CC[C@H]3[C@@H](CC4SC(N)=NC45C/C(=N/NC(N)=O)CC[C@]35C)[C@@H]1CCC2=O (some centres undefined)	20.6% (inactive)
Cc1ccc(C(Cc2ccccc2)NCCO)cc1 (centres undefined)	98.4% (inactive)

====

Reported growth values for the following molecules.
# Tested on: NCI-H322M lung
# measurement-notes: NCI-60 one-dose screen, 48 h (100 = growth as untreated, 0 = no growth, -100 = all killed)
# condition-notes: 10 µM unless noted
About 83,000 compounds went through this panel and 20% of them were active in at least one assay; those are over-represented in the sample as a whole.

molecule	study-system	output-unit	growth
COC(=O)CC12CC(NC(=O)c3csc([C@@H](C[C@H](C(C)C)N(C)C(=O)[C@@H](NC(=O)[C@H]4CCCCN4C)C(C)C)OC(C)=O)n3)(C1)C2	NCI-H322M lung	%	43
COc1ccc(/C=C/c2cc(OC)c(OC)c(OC)c2)cc1NC(=O)/C=C/c1ccc(F)cc1	NCI-H322M lung	%	55.5
Clc1ccc(COC(Cn2ccnc2)c2ccc(Cl)cc2Cl)cc1 (stereo unspecified)	NCI-H322M lung	%	84.9
CCNc1nc(Cl)nc(NCC)n1	NCI-H322M lung	%	100
CCc1ccccc1[C@@H]1C[C@]2(C)CCO[C@@H]2OO1	NCI-H322M lung	%	105
COC(=O)C12CC(NC(=O)c3csc([C@@H](C[C@H](C(C)C)N(C)C(=O)[C@@H](NC(=O)[C@H]4CCCCN4C)C(C)C)OC(C)=O)n3)(C1)C2	NCI-H322M lung	%	41.9
Cc1cc(N(CCCl)CCCl)ccc1C=Nc1ccccc1-c1ccccc1	NCI-H322M lung	%	101
CC[C@H](C)[C@H](NC(=O)[C@H]1CCCCN1C)C(=O)N(C)[C@H](CCc1nc(C(=O)N[C@@H](Cc2ccccc2)C[C@H](C)C(=O)OC)cs1)C(C)C	NCI-H322M lung	%	40.9
NC(=S)c1cn(C2OC(CO)C(O)C2O)c2ncnc(N)c12 (stereo unspecified)	NCI-H322M lung	%	-17
O=P(N1CC1)(N1CC1)N1CCc2ccccc21	NCI-H322M lung	%	108
CCOC(=O)[C@@H](C)C[C@H](Cc1ccccc1)NC(=O)c1csc([C@@H](C[C@H](C(C)C)N(C)C(=O)[C@@H](NC(=O)[C@H]2CCCCN2C)C(C)(C)C)OC(C)=O)n1	NCI-H322M lung	%	27.3
